B1: Azurin, P00282 (parent)
chain: MLRKLAAVSLLSLLSAPLLAAECSVDIQGNDQMQFNTNAITVDKSCKQFTVNLSHPGNLPKNVMGHNWVLSTAADMQGVVTDGMASGLDKDYLKPDDSRVIAHTKLIGSGEKDSVTFDVSKLKEGEQYMFFCTFPGHSALMKGTLTLK

Variants of: B1
Details: Pseudomonas aeruginosa (strain ATCC 15692 / DSM 22644 / CIP 104116 / JCM 14847 / LMG 12228 / 1C / PRS 101 / PAO1); pH 7; 25 °C; GdnHCl; Fluorescence; Phosphate 100 mM; reversible: Yes; structure 5AZU; whole UniProt chain shown
READOUT_NAME: ddG of mutation (higher = less stable) (kcal/mol)
Dear colleague, please return just the value in kcal/mol, with no unit written.

MUTANT_CODE | ddG of mutation (higher = less stable) [kcal/mol]
V25A | 0
I27A | 3.11
V80G | 3.11

Quick one: ddG of mutation (higher = less stable) for `L145A` ?
0.72

Quick one: ddG of mutation (higher = less stable) for `A102G` ?
3.11
